B1: HDAC6 (parent)
chain: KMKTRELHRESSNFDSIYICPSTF

- Variants of: B1
- Assay name: protein stability index of a GFP-peptide fusion (GPS, HEK-293T) (PSI 1-6); higher = more stable;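 note: lentivirally expressed fusions sorted by FACS into six bins by GFP to DsRed ratio, PSI derived from sequencing read proportions per bin multiplied by bin number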
- Measurement parameters: c terminus: a fixed tail appended
List of protein stability index values.
Write the value as a bare number.

Sample records with protein stability index:
INSERT INTO results (variant_spec, measured_attribute, measured_result) VALUES
  ('S22T', 'protein stability index', 1.74),
  ('T4K', 'protein stability index', 2.39),
  ('I17M', 'protein stability index', 2.57);

Value of measured protein stability index for the entry "T23N" : 3

Value of measured protein stability index for the entry "S16C" : 1.76

Value of measured protein stability index for the entry "L7I" : 2

Value of measured protein stability index for the entry "T23P" : 2.61

Value of measured protein stability index for the entry "S12D" : 2.29

Value of measured protein stability index for the entry "T23M" : 2.44

Value of measured protein stability index for the entry "S16T" : 2.62

Value of measured protein stability index for the entry "M2I" : 2.15

Value of measured protein stability index for the entry "M2N" : 2.37

Value of measured protein stability index for the entry "Y18A" : 4.07

Value of measured protein stability index for the entry "I19G" : 2.91

Value of measured protein stability index for the entry "R5L" : 3.32

Value of measured protein stability index for the entry "L7T" : 2.77

Value of measured protein stability index for the entry "F24C" : 2.97

Value of measured protein stability index for the entry "F14Q" : 3.71

Value of measured protein stability index for the entry "R5S" : 2.21

Value of measured protein stability index for the entry "F14I" : 2.58

Value of measured protein stability index for the entry "H8F" : 1.69

Value of measured protein stability index for the entry "H8I" : 1.38

Measured values drawn from the supplement of paper PMC10567573 for this set.
